Molecular target: Androgen receptor (Homo sapiens, UniProt P10275)
Sequence (P10275 whole entry): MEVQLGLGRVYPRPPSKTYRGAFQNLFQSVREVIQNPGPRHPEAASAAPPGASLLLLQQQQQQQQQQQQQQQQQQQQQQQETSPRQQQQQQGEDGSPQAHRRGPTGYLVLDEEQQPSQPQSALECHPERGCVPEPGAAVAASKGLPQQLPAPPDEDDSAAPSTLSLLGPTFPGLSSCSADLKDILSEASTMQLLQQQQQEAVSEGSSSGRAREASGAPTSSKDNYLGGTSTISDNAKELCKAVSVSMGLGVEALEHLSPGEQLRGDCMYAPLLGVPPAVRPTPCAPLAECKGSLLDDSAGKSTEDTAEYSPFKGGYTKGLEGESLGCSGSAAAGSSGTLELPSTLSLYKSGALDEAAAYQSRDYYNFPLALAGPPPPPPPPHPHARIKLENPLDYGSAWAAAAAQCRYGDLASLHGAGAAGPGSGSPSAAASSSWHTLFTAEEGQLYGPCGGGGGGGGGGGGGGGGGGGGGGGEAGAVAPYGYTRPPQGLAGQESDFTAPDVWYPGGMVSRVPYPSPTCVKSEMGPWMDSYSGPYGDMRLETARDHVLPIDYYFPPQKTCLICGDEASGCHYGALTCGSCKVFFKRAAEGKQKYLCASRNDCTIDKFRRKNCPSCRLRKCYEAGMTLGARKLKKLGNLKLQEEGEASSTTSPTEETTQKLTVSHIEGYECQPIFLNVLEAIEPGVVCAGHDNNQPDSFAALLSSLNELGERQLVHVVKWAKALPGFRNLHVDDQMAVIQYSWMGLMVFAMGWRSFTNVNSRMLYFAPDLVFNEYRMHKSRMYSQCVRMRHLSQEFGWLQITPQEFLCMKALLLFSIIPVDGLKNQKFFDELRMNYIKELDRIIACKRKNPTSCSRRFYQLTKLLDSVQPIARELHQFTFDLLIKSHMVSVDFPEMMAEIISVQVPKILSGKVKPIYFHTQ
Test: Binding affinity to androgen receptor
observable: EC50

**Query** Find EC50 (Androgen receptor (Homo sapiens, UniProt P10275)) for the entry CCN(C[C@](O)(CNC(=O)c1cnn(-c2ccc(F)cc2)c1N)C(F)(F)F)C(=O)c1c(Cl)cccc1Cl
**Result** > 10 µM
